- study-target: BCAT2 (Homo sapiens, UniProt O15382)
- Sequence (O15382 28-392): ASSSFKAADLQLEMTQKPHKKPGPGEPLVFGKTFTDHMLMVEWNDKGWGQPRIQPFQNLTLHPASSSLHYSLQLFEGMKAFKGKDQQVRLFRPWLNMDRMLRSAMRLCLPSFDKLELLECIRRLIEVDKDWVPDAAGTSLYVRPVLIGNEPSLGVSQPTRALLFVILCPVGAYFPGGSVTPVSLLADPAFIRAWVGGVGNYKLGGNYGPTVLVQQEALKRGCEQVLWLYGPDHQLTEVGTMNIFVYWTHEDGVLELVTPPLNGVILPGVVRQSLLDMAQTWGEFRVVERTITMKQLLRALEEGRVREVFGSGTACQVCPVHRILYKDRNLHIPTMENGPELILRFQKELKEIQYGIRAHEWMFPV
pIC50: −log10 of the molar value.
measure-name: pIC50

CNC(=O)c1cc2nc(-c3ccccc3)n([C@H]3CCC[C@@H](NC(=O)c4ccc(Br)s4)C3)c2cn1: > 7.00
CNC(=O)c1ccc2c(c1)nc(-c1ccccc1N1CCOCC1)n2[C@H]1CCC[C@@H](NC(=O)c2ccc(Br)s2)C1: 6.30 to 7.00
CNC(=O)c1ccc2c([C@H]3CCC[C@H](NC(=O)c4ccc(-c5ccccc5)s4)C3)c(-c3ccccc3)[nH]c2c1: < 6.00
CNC(=O)c1ccc2c(c1)nc(-c1ccccc1SC(F)(F)F)n2[C@H]1CCC[C@@H](NC(=O)c2ccc(Br)s2)C1: 6.00 to 6.30
CNC(=O)c1ccc2c(c1)nc(-c1c(F)cccc1F)n2[C@H]1CCC[C@@H](NC(=O)c2ccc(C#N)s2)C1: > 7.00
COC(=O)c1ccc2c(n1)nc(-c1ccccn1)n2[C@H]1CCC[C@@H](NC(=O)c2cccs2)C1: < 6.00
CNC(=O)c1ccc2c(c1)nc(-c1sccc1C)n2[C@H]1CCC[C@@H](NC(=O)c2ccc(Br)s2)C1: > 7.00

###

// BCAT2 (Homo sapiens, UniProt O15382) pIC50 records
pIC50: −log10 of the molar value.
measure-name: pIC50

CNC(=O)c1ccc2c(c1)nc(-c1ccccn1)n2[C@@H]1CCC[C@H](NC(=O)c2ccc(C(C)=O)s2)C1 [Compound 121]: < 6.00
CNC(=O)c1ccc2c(c1)nc(-c1ccccc1C(N)=O)n2[C@H]1CCC[C@@H](NC(=O)c2ccc(Br)s2)C1 [Compound 143]: > 7.00
CNC(=O)c1ccc2c(c1)nc(-c1cccc(F)c1)n2C1CCCN(C(=O)Nc2cccs2)C1 (stereo not shown) [Compound 228]: < 6.00
CNC(=O)c1cc2nc(-c3ncccc3F)n([C@H]3CCC[C@@H](NC(=O)c4ccc(Br)s4)C3)c2cc1Cl [Compound 237]: 6.30 to 7.00
CNC(=O)c1cc2nc(-c3c(F)ccc(F)c3O)n([C@H]3CCC[C@@H](NC(=O)c4ccc(C#N)s4)C3)c2cc1F [Compound 232]: > 7.00
CNC(=O)c1ccc2c(c1)nc(-c1ccc3c(c1)OC(F)(F)O3)n2[C@H]1CCC[C@@H](NC(=O)c2ccc(Br)s2)C1 [Compound 160]: < 6.00
CNC(=O)c1ccc2c(c1)nc(-c1ccccn1)n2[C@@H]1CCC[C@H](NC(=O)c2cccc(Br)c2)C1 [Compound 116]: < 6.00

###

- study-target: BCAT2 (Homo sapiens, UniProt O15382)
- Sequence (O15382 28-392): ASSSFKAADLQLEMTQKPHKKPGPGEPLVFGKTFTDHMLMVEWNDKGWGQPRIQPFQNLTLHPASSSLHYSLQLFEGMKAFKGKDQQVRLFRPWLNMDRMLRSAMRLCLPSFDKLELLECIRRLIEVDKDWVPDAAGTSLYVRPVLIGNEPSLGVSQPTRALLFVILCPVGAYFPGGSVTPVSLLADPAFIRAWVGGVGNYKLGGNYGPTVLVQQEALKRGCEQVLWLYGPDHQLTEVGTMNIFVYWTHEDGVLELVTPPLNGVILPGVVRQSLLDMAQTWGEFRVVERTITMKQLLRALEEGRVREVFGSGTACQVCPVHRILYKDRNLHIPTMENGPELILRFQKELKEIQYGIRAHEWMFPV
measure-name: IC50

CNC(=O)c1ccc2c(c1)nc(-c1cc(Cl)ccc1O)n2[C@H]1CCC[C@@H](NC(=O)c2ccc(C#N)s2)C1: 100 to 500 nM
C#Cc1ccccc1-c1nc2cc(C(=O)NC)ccc2n1[C@H]1CCC[C@@H](NC(=O)c2ccc(Br)s2)C1: < 100 nM
C=CC(=O)N[C@H]1CCC[C@@H](n2c(-c3ccccn3)nc3cc(C(=O)NC)ccc32)C1: > 1000 nM
CNC(=O)c1ccc2c(c1)nc(-c1ccccc1C(F)F)n2C1CCC[C@@H](NC(=O)c2ccc(Br)s2)C1 (some centres unmarked): < 100 nM
O=C(N[C@H]1CCC[C@@H](n2c(-c3ccccn3)nc3cc(CO)ccc32)C1)c1ccc(Br)s1: 100 to 500 nM
CNC(=O)c1ccc2c(C3CCCC(NC(=O)c4cccs4)C3)c(-c3ccccc3)[nH]c2c1 (centres unmarked): > 1000 nM
CNC(=O)c1ccc2c(c1)nc(-c1c(O)cccc1F)n2[C@H]1CCC[C@@H](NC(=O)c2ccc(Br)s2)C1: < 100 nM
CNC(=O)c1ccc2c(c1)nc(-c1ccccc1F)n2[C@H]1CCC[C@@H](C(=O)Nc2ccccc2)C1: > 1000 nM
CNC(=O)c1ccn2c(C3CCCC(NC(=O)c4ccc(Br)s4)C3)c(-c3ccccc3)nc2c1 (centres unmarked): 100 to 500 nM
CNC(=O)c1ccc2c(c1)nc(-c1c(O)cccc1F)n2[C@H]1CCC[C@@H](NC(=O)c2ccc(C#N)s2)C1: < 100 nM
CNC(=O)c1ccc2c(c1)nc(-c1cnccn1)n2[C@H]1CCC[C@@H](NC(=O)c2ccc(Br)s2)C1: 100 to 500 nM
CNC(=O)c1cc2nc(-c3cccc(F)c3O)n([C@H]3CCC[C@@H](NC(=O)c4ccc(Br)s4)C3)c2cc1F: < 100 nM
CNC(=O)c1ccc2c(c1)nc(-c1ccccc1C(N)=O)n2[C@H]1CCC[C@@H](NC(=O)c2ccc(C#N)s2)C1: < 100 nM
CNC(=O)c1ccc2c(c1)nc(-c1ccc(C#N)c(Cl)n1)n2[C@H]1CCC[C@@H](NC(=O)c2ccc(C#N)s2)C1: > 1000 nM

###

- study-target: BCAT2 (Homo sapiens)
- Sequence (O15382 28-392): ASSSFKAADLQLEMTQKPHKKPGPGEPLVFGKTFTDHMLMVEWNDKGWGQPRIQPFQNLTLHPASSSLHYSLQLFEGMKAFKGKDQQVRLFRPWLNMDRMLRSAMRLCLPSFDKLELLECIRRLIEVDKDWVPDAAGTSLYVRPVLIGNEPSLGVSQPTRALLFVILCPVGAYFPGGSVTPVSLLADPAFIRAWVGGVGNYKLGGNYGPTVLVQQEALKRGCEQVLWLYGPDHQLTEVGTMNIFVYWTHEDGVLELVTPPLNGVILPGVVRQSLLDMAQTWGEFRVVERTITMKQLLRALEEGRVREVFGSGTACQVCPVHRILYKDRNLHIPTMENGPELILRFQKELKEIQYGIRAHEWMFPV
Known IC50 of a selection of compounds
measure-name: IC50

N#Cc1ccc(C(=O)N[C@@H]2CCC[C@H](n3c(-c4ccccn4)nc4cc(CO)ccc43)C2)s1: 100 to 500 nM
CNC(=O)c1cc2nc(-c3ccccc3F)n([C@H]3CCC[C@@H](NC(=O)c4ccc(Br)s4)C3)c2cc1OC: < 100 nM
CNC(=O)c1ccc2c(c1)nc(-c1cc(F)ccc1F)n2[C@H]1CCC[C@@H](NC(=O)c2ccc(Br)s2)C1: < 100 nM

###

- study-target: BCAT2 (Homo sapiens)
- Sequence (O15382 28-392): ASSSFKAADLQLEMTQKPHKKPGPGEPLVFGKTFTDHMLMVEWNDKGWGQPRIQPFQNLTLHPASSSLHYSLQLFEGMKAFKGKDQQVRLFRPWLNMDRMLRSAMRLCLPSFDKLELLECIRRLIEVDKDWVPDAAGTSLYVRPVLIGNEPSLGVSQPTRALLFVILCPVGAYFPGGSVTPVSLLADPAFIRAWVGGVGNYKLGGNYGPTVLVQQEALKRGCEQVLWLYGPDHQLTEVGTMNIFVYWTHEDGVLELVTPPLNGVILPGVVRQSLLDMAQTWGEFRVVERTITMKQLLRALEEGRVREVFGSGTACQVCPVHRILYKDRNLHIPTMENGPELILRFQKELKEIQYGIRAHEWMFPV
pIC50: −log10 of the molar value.
measure-name: pIC50

CNC(=O)c1ccc2c(c1)nc(-c1ncccc1OC)n2[C@H]1CCC[C@@H](NC(=O)c2ccc(Br)s2)C1 [Compound 150]: < 6.00
CNC(=O)c1ccc2c(c1)nc(-c1ccccn1)n2[C@H]1CCC[C@@H](NC(=O)c2sc(Cl)cc2OC)C1 [Compound 243]: 6.30 to 7.00
CNC(=O)c1ccc2c(c1)nc(-c1ccc(O)cn1)n2[C@H]1CCC[C@@H](NC(=O)c2ccc(Br)s2)C1 [Compound 186]: 6.30 to 7.00
C=CC(=O)Nc1ccc(C(=O)N[C@H]2CCC[C@@H](n3c(-c4ccccn4)nc4cc(C(=O)NC)ccc43)C2)s1 [Compound 110]: < 6.00
CNC(=O)c1ccc2c(c1)nc(-c1cccc(F)n1)n2[C@H]1CCC[C@@H](NC(=O)c2ccc(Br)s2)C1 [Compound 216]: > 7.00
CNC(=O)c1ccc2c(c1)nc(-c1ccccc1F)n2[C@H]1CCC[C@@H](NC(=O)c2ccc(Br)s2)C1 [Compound 145]: > 7.00
CNC(=O)c1ccc2c(c1)nc(-c1ncccc1F)n2[C@H]1CCC[C@@H](NC(=O)c2ccc(C#N)s2)C1 [Compound 198]: > 7.00
CNC(=O)c1ccc2c(c1)nc(-c1ccccn1)n2[C@@H]1CCC[C@H](NC(=O)c2ccc([N+](=O)[O-])s2)C1 [Compound 107]: 6.00 to 6.30
CNC(=O)c1ccc2c(c1)nc(-c1ccccn1)n2[C@H]1CCC[C@@H](NC(=O)c2sc(Cl)cc2Cl)C1 [Compound 242]: < 6.00
CNC(=O)c1cc2nc(-c3ccccn3)n([C@H]3CCC[C@@H](NC(=O)c4ccc(Cl)s4)C3)c2cc1Cl [Compound 235]: 6.00 to 6.30
CNC(=O)c1cc2nc(-c3ccccc3F)n([C@H]3CCC[C@@H](NC(=O)c4ccc(Cl)s4)C3)c2cc1F [Compound 206]: > 7.00
CNC(=O)c1cc2nc(-c3ncccc3F)n([C@H]3CCC[C@@H](NC(=O)c4ccc(Cl)s4)C3)c2cc1Cl [Compound 236]: 6.30 to 7.00
CNC(=O)c1ccc2c(c1)nc(-c1cccs1)n2[C@H]1CCC[C@@H](NC(=O)c2ccc(C#N)s2)C1 [Compound 181]: > 7.00
CNC(=O)c1ccc2c(c1)nc(-c1ccccn1)n2[C@@H]1CCC[C@H](NC(=O)c2ccccc2)C1 [Compound 115]: < 6.00
CNC(=O)c1ccc2c(c1)nc(-c1ccccc1C#N)n2[C@H]1CCC[C@@H](C(=O)Nc2ccccc2)C1 [Compound 203]: < 6.00
CNC(=O)c1cc2nc(-c3ccccn3)n([C@H]3CCC[C@@H](NC(=O)c4ccc(Br)s4)C3)c2cc1OC [Compound 211]: > 7.00
CNC(=O)c1ccc2c(c1)nc(-c1ccc(Cl)cc1)n2[C@H]1CCC[C@@H](NC(=O)c2ccc(Br)s2)C1 [Compound 164]: 6.30 to 7.00
CNC(=O)c1ccc2c(c1)nc(-c1c(O)ccc(F)c1F)n2[C@H]1CCC[C@@H](NC(=O)c2ccc(Br)s2)C1 [Compound 180]: > 7.00
CNC(=O)c1ccc2c(c1)nc(-c1ccccn1)n2[C@@H]1CCC[C@H](NC(=O)c2ccc(-c3ccccc3)s2)C1 [Compound 111]: < 6.00
CNC(=O)c1ccc2c(c1)nc(-c1ccccn1)n2[C@@H]1CCC[C@H](NC(=O)c2ccc(Br)o2)C1 [Compound 125]: < 6.00
CNC(=O)c1ccc2c(c1)nc(-c1ccc(F)cc1F)n2[C@H]1CCC[C@@H](NC(=O)c2ccc(Br)s2)C1 [Compound 176]: > 7.00
CNC(=O)c1ccc2c(c1)nc(-c1ccccn1)n2[C@H]1CCC[C@@H](NC(=O)c2ccc(C(C)C)s2)C1 [Compound 146]: < 6.00
CNC(=O)c1cc2nc(-c3c(F)ccc(F)c3O)n([C@H]3CCC[C@@H](NC(=O)c4ccc(Br)s4)C3)c2cc1F [Compound 233]: > 7.00
O=C(N[C@@H]1CCC[C@H](n2c(-c3ccccn3)nc3cccnc32)C1)c1ccc(Br)s1 [Compound 280]: 6.30 to 7.00
CNC(=O)c1ccc2c(c1)nc(-c1ccc(C)cc1)n2[C@H]1CCC[C@@H](NC(=O)c2ccc(Br)s2)C1 [Compound 170]: 6.00 to 6.30
O=C(N[C@@H]1CCC[C@H](n2c(-c3ccccc3F)nc3cccnc32)C1)c1ccc(Br)s1 [Compound 285]: > 7.00
CNC(=O)c1cc2nc(-c3cccc(F)c3)n(C3CCC[C@@H](NC(=O)c4ccc(F)s4)C3)c2cc1F (stereo partly shown) [Compound 225]: > 7.00
N#Cc1ccc2c(c1)nc(-c1ccccn1)n2[C@H]1CCC[C@@H](NC(=O)c2ccc(Cl)s2)C1 [Compound 195]: > 7.00

All values here come from patent US20220274967A1.
